Molecular target: one or more of HDAC-4, HDAC-5, HDAC-6, HDAC-7, HDAC-8, HDAC-9, HDAC-10 and HDAC-11
Assay: Inhibition of histone deacetylase enzymatic activity (summary statement over isoforms)
Conditions: Table 3, selected examples; HDAC isoform not given
pIC50: −log10 of the molar value.
quantity_name: pIC50

Enquiry: Record CN1CCN(c2ccc(C(C(=O)NO)c3ccccc3)cc2)CC1 (stereo not shown) [Compound 5-83] : what is its pIC50 with one or more of HDAC-4, HDAC-5, HDAC-6, HDAC-7, HDAC-8, HDAC-9, HDAC-10 and HDAC-11?
Return: > 6.00

Enquiry: Record O=C(NO)C1c2ccccc2CCc2ccccc21 [Compound 5-31] : what is its pIC50 with one or more of HDAC-4, HDAC-5, HDAC-6, HDAC-7, HDAC-8, HDAC-9, HDAC-10 and HDAC-11?
Return: 4.82 to 6.00

Enquiry: Record O=C(NO)C(c1ccccc1)N1CCC(Oc2ccccc2)CC1 (stereo not shown) [Compound 1-43] : what is its pIC50 with one or more of HDAC-4, HDAC-5, HDAC-6, HDAC-7, HDAC-8, HDAC-9, HDAC-10 and HDAC-11?
Return: > 6.00

Enquiry: Record O=C(NO)C(c1ccc(N2CCOCC2)cc1)c1c(F)cccc1F (stereo not shown) [Compound 6-24] : what is its pIC50 with one or more of HDAC-4, HDAC-5, HDAC-6, HDAC-7, HDAC-8, HDAC-9, HDAC-10 and HDAC-11?
Return: 4.82 to 6.00

Enquiry: Record O=C(NO)C(c1ccccc1)c1ccc(-c2ccc(F)c(F)c2)cc1 (stereo not shown) [Compound 5-49] : what is its pIC50 with one or more of HDAC-4, HDAC-5, HDAC-6, HDAC-7, HDAC-8, HDAC-9, HDAC-10 and HDAC-11?
Return: > 6.00

Enquiry: Record O=C(NO)C(c1ccccc1)c1cccc(NCc2ccncc2)c1 (stereo not shown) [Compound 2-81] : what is its pIC50 with one or more of HDAC-4, HDAC-5, HDAC-6, HDAC-7, HDAC-8, HDAC-9, HDAC-10 and HDAC-11?
Return: > 6.00

Enquiry: Record COc1cccc(CNc2ccc(C(C(=O)NO)c3ccccc3)cc2)c1 (stereo not shown) [Compound 2-84] : what is its pIC50 with one or more of HDAC-4, HDAC-5, HDAC-6, HDAC-7, HDAC-8, HDAC-9, HDAC-10 and HDAC-11?
Return: > 6.00

Enquiry: Record COc1ccccc1C(C(=O)NO)c1ccc(N2CCOCC2)cc1 (stereo not shown) [Compound 5-129] : what is its pIC50 with one or more of HDAC-4, HDAC-5, HDAC-6, HDAC-7, HDAC-8, HDAC-9, HDAC-10 and HDAC-11?
Return: 4.82 to 6.00

Enquiry: Record COc1ccc(S(=O)(=O)Nc2cccc(C(C(=O)NO)c3ccccc3)c2)cc1 (stereo not shown) [Compound 2-91] : what is its pIC50 with one or more of HDAC-4, HDAC-5, HDAC-6, HDAC-7, HDAC-8, HDAC-9, HDAC-10 and HDAC-11?
Return: 4.82 to 6.00

Enquiry: Record O=C(NO)C(c1ccccc1)c1ccc(N2CCN(c3ccccn3)CC2)cc1 (stereo not shown) [Compound 5-66] : what is its pIC50 with one or more of HDAC-4, HDAC-5, HDAC-6, HDAC-7, HDAC-8, HDAC-9, HDAC-10 and HDAC-11?
Return: > 6.00

Enquiry: Record CCN(CC)c1ccc(C(C(=O)NO)c2cccc(F)c2)cc1 (stereo not shown) [Compound 6-37] : what is its pIC50 with one or more of HDAC-4, HDAC-5, HDAC-6, HDAC-7, HDAC-8, HDAC-9, HDAC-10 and HDAC-11?
Return: > 6.00

Enquiry: Record CN(C)C(=O)c1ccc(-c2cccc(C(C(=O)NO)c3ccccc3)c2)cc1 (stereo not shown) [Compound 2-109] : what is its pIC50 with one or more of HDAC-4, HDAC-5, HDAC-6, HDAC-7, HDAC-8, HDAC-9, HDAC-10 and HDAC-11?
Return: > 6.00

Enquiry: Record O=C(NO)C(c1ccccc1)c1nc2cc(Cl)c(F)cc2[nH]1 (stereo not shown) [Compound 1-25] : what is its pIC50 with one or more of HDAC-4, HDAC-5, HDAC-6, HDAC-7, HDAC-8, HDAC-9, HDAC-10 and HDAC-11?
Return: 4.82 to 6.00

Enquiry: Record O=C(NO)C(c1ccccc1)N1CCN(C2=Nc3ccccc3Oc3ccc(Cl)cc32)CC1 (stereo not shown) [Compound 5-20] : what is its pIC50 with one or more of HDAC-4, HDAC-5, HDAC-6, HDAC-7, HDAC-8, HDAC-9, HDAC-10 and HDAC-11?
Return: > 6.00

Enquiry: Record O=C(NO)C(c1ccccc1)c1nnc(-c2ccccc2-c2ccccc2)s1 (stereo not shown) [Compound 5-39] : what is its pIC50 with one or more of HDAC-4, HDAC-5, HDAC-6, HDAC-7, HDAC-8, HDAC-9, HDAC-10 and HDAC-11?
Return: 4.82 to 6.00

Enquiry: Record O=C(Cc1ccccc1)Nc1cccc(C(C(=O)NO)c2ccccc2)c1 (stereo not shown) [Compound 2-60] : what is its pIC50 with one or more of HDAC-4, HDAC-5, HDAC-6, HDAC-7, HDAC-8, HDAC-9, HDAC-10 and HDAC-11?
Return: > 6.00

Enquiry: Record O=C(NO)C(c1ccccc1)c1nnc(-c2ccccc2)s1 (stereo not shown) [Compound 5-19] : what is its pIC50 with one or more of HDAC-4, HDAC-5, HDAC-6, HDAC-7, HDAC-8, HDAC-9, HDAC-10 and HDAC-11?
Return: 4.82 to 6.00

Enquiry: Record O=C(NO)C(Sc1ccnc2cc(C(F)(F)F)ccc12)c1ccccc1 (stereo not shown) [Compound 2-49] : what is its pIC50 with one or more of HDAC-4, HDAC-5, HDAC-6, HDAC-7, HDAC-8, HDAC-9, HDAC-10 and HDAC-11?
Return: > 6.00

Enquiry: Record COc1ccc(C2CCN(C(C(=O)NO)c3ccccc3)CC2)cc1 (stereo not shown) [Compound 5-24] : what is its pIC50 with one or more of HDAC-4, HDAC-5, HDAC-6, HDAC-7, HDAC-8, HDAC-9, HDAC-10 and HDAC-11?
Return: > 6.00
